# Subject Of Test: mAChR M4 (Homo sapiens, UniProt P08173)
# Construct: expressed in transfected cells; host or cells: CHO-K1 cells stably transfected with M4 cDNA and chimeric G-protein Gqi5
# Protocol Details: mAChR M4 cell-based functional assay (calcium mobilization, potentiation of EC20 acetylcholine response)
# Study Conditions: % ACh maximum at 30 μM
Endpoint Label: Emax at 30 µM (%)

Molecule	Measured Result
COc1cncc(-c2ccc(CNC(=O)c3sc4nnc(C)c(C)c4c3N)cc2)c1 [Example B488]	76
CCc1ccc(CNC(=O)c2sc3nnc(C)c(C)c3c2N)cc1 [Example B395]	71
COc1ccc(CNC(=O)c2sc3nnc(C)c(C)c3c2N)cc1F [Example B90]	58
Cc1nnc2sc(C(=O)NC3CN(C(=O)C(C)(C)C)C3)c(N)c2c1C [Example B121]	92
Cc1nnc2sc(C(=O)N[C@@H]3CCN(S(C)(=O)=O)C3)c(N)c2c1C [Example B77]	53
Cc1nnc2sc(C(=O)NCCN(C)S(=O)(=O)c3ccccc3)c(N)c2c1C [Example B375]	51
CCCCC1(OC)CN(C(=O)c2sc3nnc(C)c(C)c3c2N)C1 [Example B305]	68
Cc1nnc2sc(C(=O)NCC3CN(C(=O)OC(C)(C)C)C3)c(N)c2c1C [Example B197]	35
Cc1nnc2sc(C(=O)NCc3ccc(-c4ccc5occc5c4)cc3)c(N)c2c1C [Example B463]	70
Cc1nnc2sc(C(=O)N3CCC(NS(=O)(=O)c4cncn4C)C3)c(N)c2c1C (stereo not shown) [Example B202]	69

(I) Cc1nnc2sc(C(=O)NC3CN(S(=O)(=O)CC(F)(F)F)C3)c(N)c2c1C [Example B119]
(II) Nc1c(C(=O)NCc2ccc3c(c2)OC(F)(F)O3)sc2nnc3c(c12)CCCC3 [Example B53]
Emax at 30 µM comparison. Which is larger, I or II ? Kindly give the label for the entry you pick.
I
(I: 68%, II: 42%)

(a) Cc1nnc2sc(C(=O)Nc3ccc4cn[nH]c4c3)c(N)c2c1C [Example B67]
(b) COc1ccc(S(=O)(=O)N2CC(NC(=O)c3sc4nnc(C)c(C)c4c3N)C2)cc1 [Example B144]
Emax at 30 µM comparison. Which is larger, a or b ? Kindly give the label for the entry you pick.
b
(b: 87%, a: 51%)

---

# Subject Of Test: mAChR M4 (Homo sapiens)
# Construct: expressed in transfected cells; host or cells: CHO-K1 cells stably transfected with M4 cDNA and chimeric G-protein Gqi5
# Sequence (P08173 1-479): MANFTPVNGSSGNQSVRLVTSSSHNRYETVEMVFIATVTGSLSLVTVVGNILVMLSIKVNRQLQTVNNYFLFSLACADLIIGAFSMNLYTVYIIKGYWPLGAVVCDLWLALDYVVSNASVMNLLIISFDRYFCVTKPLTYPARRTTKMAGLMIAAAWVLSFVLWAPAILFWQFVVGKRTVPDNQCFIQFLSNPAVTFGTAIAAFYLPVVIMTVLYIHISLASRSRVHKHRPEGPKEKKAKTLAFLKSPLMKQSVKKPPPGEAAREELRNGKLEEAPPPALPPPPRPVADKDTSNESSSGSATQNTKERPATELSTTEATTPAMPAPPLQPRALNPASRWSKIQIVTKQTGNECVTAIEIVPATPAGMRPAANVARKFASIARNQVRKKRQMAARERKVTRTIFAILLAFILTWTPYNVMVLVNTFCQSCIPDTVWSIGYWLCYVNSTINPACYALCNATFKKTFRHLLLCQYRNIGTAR
# Protocol Details: mAChR M4 cell-based functional assay (calcium mobilization, potentiation of EC20 acetylcholine response)
# Study Conditions: % ACh maximum at 30 μM
Endpoint Label: Emax at 30 µM (%)

Compound	Value Unit	Emax at 30 µM
Cc1nnc2sc(C(=O)NCc3ccc(S(=O)(=O)C(F)F)cc3Cl)c(N)c2c1C [Example B507]	%	66
Cc1nnc2sc(C(=O)N3CC4(C3)CN(C(=O)C3CCCC3)C4)c(N)c2c1C [Example B402]	%	46
Cc1nnc2sc(C(=O)N3CCC(NC(=O)c4ccccn4)C3)c(N)c2c1C (stereo not drawn) [Example B240]	%	53
